Tested on: MDCK cells
Assay: Cytotoxicity assay
Format: cell-based
Details: 48 h, MTT, NCTC was selected as EC50 (HA test)

{"compound": "CCCCCCCCCCCCCCCCCC[N+](C)(C)Cc1ccc(C[N+](C)(C)CCCCCCCCCCCCCCCCCC)cc1.[Br-].[Br-] [GSK]", "NCTC (EC50)": "307.3 ± 0.0 µg/mL"}
{"compound": "CCCCCCCCCCCCCCCC[N+](C)(C)Cc1ccc(C[N+](C)(C)CCCCCCCCCCCCCCCC)cc1.[Br-].[Br-] [GSH]", "NCTC (EC50)": "36.7 ± 28.6 µg/mL"}
{"compound": "CCCCCCCCCCCCCCCC[N+](C)(C)CCCCCCCCCC[N+](C)(C)CCCCCCCCCCCCCCCC.[Br-].[Br-] [GSF]", "NCTC (EC50)": "1.7 ± 0.5 µg/mL"}
{"compound": "CCCCCCCCCCCC[N+](C)(C)CCOCC[N+](C)(C)CCCCCCCCCCCC.[Br-].[Br-] [GSD]", "NCTC (EC50)": "1.7 ± 0.6 µg/mL"}
{"compound": "CCCCCCCCCCCC[N+](C)(C)CCCCCC[N+](C)(C)CCCCCCCCCCCC.[Br-].[Br-] [GSE]", "NCTC (EC50)": "0.9 ± 0.5 µg/mL"}
{"compound": "CCC(CC)O[C@@H]1C=C(C(=O)O)C[C@H](N)[C@H]1NC(C)=O [Ose, oseltamivir carboxylate, reference compound]", "NCTC (EC50)": "394.2 ± 0.0 µg/mL"}
{"compound": "CCCCCCCCCCCC[N+](C)(C)CCCCCCCCCC[N+](C)(C)CCCCCCCCCCCC.[Br-].[Br-] [GSC]", "NCTC (EC50)": "1.2 ± 0.6 µg/mL"}
{"compound": "CCCCCCCCCCCCCCCC[N+](C)(C)CCCCCC[N+](C)(C)CCCCCCCCCCCCCCCC.[Br-].[Br-] [GSA]", "NCTC (EC50)": "2.6 ± 1.7 µg/mL"}
{"compound": "CCCCCCCCCCCCCCCCCC[N+](C)(C)CCCCCCCCCCCC[N+](C)(C)CCCCCCCCCCCCCCCCCC.[Br-].[Br-] [GSJ]", "NCTC (EC50)": "0.6 ± 0.2 µg/mL"}
{"compound": "CCCCCCCCCCCCCCCC[N+](C)(C)CCCCCCCCCCCC[N+](C)(C)CCCCCCCCCCCCCCCC.[Br-].[Br-] [GSG]", "NCTC (EC50)": "1.7 ± 1.3 µg/mL"}
{"compound": "CCCCCCCCCCCC[N+](C)(C)CCCNCCC[N+](C)(C)CCCCCCCCCCCC.[Br-].[Br-] [GSB]", "NCTC (EC50)": "0.7 ± 0.3 µg/mL"}
{"compound": "CCCCCCCCCCCCCCCCCC[N+](C)(C)CCCCCCCCCC[N+](C)(C)CCCCCCCCCCCCCCCCCC.[Br-].[Br-] [GSI]", "NCTC (EC50)": "2.6 ± 1.5 µg/mL"}
